- Test system: Sonic hedgehog protein (Shh)
- METHOD NOTES: Sonic hedgehog microarray binding compounds – biochemical, small-molecule microarray, 635/667 nm fluorescence, primary screen (AID 1151);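 also: Shh protein binding to compounds spotted on small-molecule microarray slides; score combines spot fluorescence intensity with signal-to-noise across triplicate slides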
- ASSAY CONTEXT: 635 nm fluorescence, higher = more signal
Reported composite z-score by item:
Answer field: number only, no words.

(Q) Report measured composite z-score; entry is `CCCCC=C[C@@H](NC(=O)CCc1ccccc1)c1ccccc1`
(A) 0.0847

(Q) Report measured composite z-score; entry is `[N-]=[N+]=NCc1ccccc1[C@H]1OC(c2ccc(OCCCO)cc2)=N[C@@]1(Cc1ccccc1)C(N)=O`
(A) -1.13

(Q) Report measured composite z-score; entry is `COC(=O)[C@@]1(Cc2ccc(OC)cc2)[C@H]2c3cc(C(=O)N4CCCC4)n(Cc4ccc(C)o4)c3C[C@H]2CN1C(=O)c1ccccc1`
(A) -0.754

(Q) Report measured composite z-score; entry is `O=C1c2ccccc2[C@](Cc2ccccc2I)(C(=O)NC2CC2)[C@H](c2ccc(CO)cc2)N1Cc1ccccc1Cl`
(A) 1

====

- METHOD NOTES: ATP-based viability of Huh7 replicon cells – cell-based, CellTiter-Glo luminescence, basal, 48 h, cytotoxicity control for HCV replication inhibitor project, primary screen (AID 1143);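 also: Huh7 hepatoma cells carrying a hepatitis C replication reporter with no stimulus; test concentration not given here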
- ASSAY CONTEXT: higher = more signal, called active from +8 up or from −8 down
QUANTITY MEASURED: z-score
Answer field: number only, no words.

>>> quantitative_result("C=CCOc1ccc([C@@H]2CC=C(C(=O)OCC)[C@H](c3cccc(Br)c3)N2S(=O)(=O)c2ccc(C)cc2)cc1")
-4.43
>>> quantitative_result("COCCCNC(=O)[C@]1(Cc2ccccc2CN=[N+]=[N-])N=C(c2ccc(OCCCO)cc2)O[C@@H]1c1ccccc1CN=[N+]=[N-]")
-4.04
>>> quantitative_result("CC(C)(C)OC(=O)CC[C@]1(C(=O)N2CCCCC2)N=C(c2ccc(OCCCO)cc2)O[C@H]1c1ccccc1CN=[N+]=[N-]")
-3.42

(Q) Report measured z-score; entry is COC(=O)c1ccc(OC)c(/C=C\CC(CCc2ccccc2)OC(=O)c2ccncc2)c1 (stereo not drawn)
(A) -1.66

(Q) Report measured z-score; entry is `CCOC(=O)C1=CC[C@@H](c2ccccc2)N(S(=O)(=O)c2ccc(C)cc2)[C@H]1C=C(C)C`
(A) -4.76

(Q) Report measured z-score; entry is `C=CC[C@@]1(C(=O)NCCN2CCOCC2)N=C(c2ccc(OCCCO)cc2)O[C@@H]1c1ccccc1`
(A) -0.914

(Q) Report measured z-score; entry is `COc1ccc([Si](C)(C)[C@@H]2[C@@H](CC(=O)N(CCO)Cc3ccccc3)O[C@]3(C(=O)N(C)c4c(Br)cc(C)cc43)[C@H]2C)cc1`
(A) -5.28

(Q) Report measured z-score; entry is `Cc1ccc(S[C@]2(C(=O)NCC(C)C)CC(=O)N(C3CCCCC3)[C@@H]2c2ccc(CO)cc2I)cc1`
(A) -4.87

====

- METHOD NOTES: compound effects on multiple myeloma cell viability – MM1S, calcein-AM fluorescence, 48 h, basal, profiling panel (AID 1165);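 also: viability of MM1S multiple myeloma cells under basal unstimulated conditions; test concentration not given here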
- ASSAY CONTEXT: higher = more signal
QUANTITY MEASURED: z-score
Answer field: number only, no words.

Some solved entries appear below for comparison.
>>> quantitative_result("COCCOC(=O)N1C(=O)[C@@]2(c3cc(C#CCNC(N)=O)ccc31)[C@H](C(N)=O)[C@H]1C(=O)O[C@H](c3ccccc3)[C@H](c3ccccc3)N1[C@@H]2c1ccc(OCCO)cc1")
-0.905
>>> quantitative_result("COc1ccc([Si](C)(C)[C@@H]2[C@@H](CCO)O[C@]3(C(=O)N(Cc4ccccc4)c4ccc(N5C(=O)COc6ccccc65)cc43)[C@H]2C)cc1")
-2.24
>>> quantitative_result("COCCCNC(=O)[C@@]1(Cc2ccccc2)COC(c2ccc(OCCCO)cc2)=N1")
-0.35
>>> quantitative_result("Cc1ccc(F)cc1S(=O)(=O)N[C@@H]1CCN(C(=O)c2ccc(OC(C)C)cc2)C1")
0.0842
>>> quantitative_result("COCCOC(=O)N1C(=O)[C@@]2(c3cc(C#CCCO)ccc31)[C@H](C(=O)N1CCc3cc(OC)c(OC)cc3C1)[C@H]1C(=O)O[C@H](c3ccccc3)[C@H](c3ccccc3)N1[C@@H]2c1ccc(OCCO)cc1")
0.214

(Q) Report measured z-score; entry is `COc1ccc(C#Cc2ccc3c(c2)[C@]2(C(=O)N3)[C@H](C(=O)O)[C@H]3C(=O)O[C@H](c4ccccc4)[C@H](c4ccccc4)N3[C@@H]2c2ccc(OCCO)cc2)cc1`
(A) -2.45

(Q) Report measured z-score; entry is `COC(=O)[C@@]1(Cc2ccc(F)cc2)[C@H]2c3cc(C(=O)N(C)C)n(Cc4ccc(C)c(F)c4F)c3C[C@H]2CN1C(=O)c1ccccc1`
(A) -0.144

(Q) Report measured z-score; entry is `COC(=O)[C@@]1(Cc2ccc(OC)cc2)[C@H]2c3cc(C(=O)N(C)C)n(Cc4cc(F)c(F)c(F)c4)c3C[C@H]2CN1C(=O)c1ccccc1`
(A) -1.59

(Q) Report measured z-score; entry is COc1cc(C(O)C2C=CC3C(=O)N(C)C(=O)C3N2NC(=O)OC(C)(C)C)cc(OC)c1OC (stereo not drawn)
(A) -2.19

(Q) Report measured z-score; entry is `CO[C@H]1O[C@H](CO)[C@@H](OC(=O)Nc2ccc(C(F)(F)F)cc2)[C@H](OC(=O)Nc2ccccc2)[C@H]1OC(=O)Nc1ccccc1`
(A) -3.39

====

- METHOD NOTES: small molecules captured by biotinylated probe aFGF2 – biochemical, small-molecule microarray, fluorescence 635/667, stem cell growth factor project, primary screen (AID 1067);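 also: measures binding of biotinylated aFGF2 protein to printed compounds on slides; z-score merges feature fluorescence and signal-to-noise across triplicate slides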
- ASSAY CONTEXT: higher = more signal
Reported composite z-score by item:
Answer field: number only, no words.

>>> quantitative_result("C[N+](C)(C)CCCCCCNC(=O)[C@@H]1C[C@@H]2C(=O)NCC(=O)N2[C@@H]1c1ccc(O)cc1")
-0.116
>>> quantitative_result("C=CC[C@]1(C(=O)NCC(O)CO)N=C(c2ccc(OCCCO)cc2)O[C@H]1c1ccccc1N=[N+]=[N-] (some centres undefined)")
0.0649

(Q) Report measured composite z-score; entry is `Cc1ccc(S[C@]2(C(=O)O)CC(=O)N(C3CCCCC3)[C@@H]2c2ccc(CO)cc2)cc1`
(A) -0.0943

(Q) Report measured composite z-score; entry is `[N-]=[N+]=NCc1ccccc1C[C@@]1(C(=O)NCCN2CCOCC2)N=C(c2ccc(OCCCO)cc2)O[C@@H]1c1ccccc1CN=[N+]=[N-]`
(A) 0.105

====

Reported composite z-score by item:
- Tested on: Sonic hedgehog protein (Shh)
- METHOD NOTES: Sonic hedgehog microarray binding compounds – biochemical, small-molecule microarray, 635/667 nm fluorescence, primary screen (AID 1151);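 also: Shh protein binding to compounds spotted on small-molecule microarray slides; score combines spot fluorescence intensity with signal-to-noise across triplicate slides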
- ASSAY CONTEXT: 635 nm fluorescence, higher = more signal
Answer field: number only, no words.

>>> quantitative_result("CC(C)N1CC=CC23O[C@@H]4C=CCOC(=O)[C@@H]4[C@H]2C(=O)N(CCCCCCO)[C@@H]3C1=O (some centres undefined)")
1.08

(Q) Output reported composite z-score of the molecule Cc1ccccc1C(O)C1C=CC2C(=O)N(C)C(=O)C2N1Nc1ccc([N+](=O)[O-])cc1[N+](=O)[O-] (centres undefined) on Sonic hedgehog protein (Shh).
(A) -0.457

(Q) Output reported composite z-score of the molecule `CCCC=C(CCC)[C@@H](NS(=O)(=O)c1ccccc1)c1ccc(C(F)(F)F)cc1` on Sonic hedgehog protein (Shh).
(A) 0.0898

(Q) Output reported composite z-score of the molecule `COc1ccc([Si](C)(C)[C@@H]2[C@@H](CCO)O[C@]3(C(=O)N(Cc4cccc(N5C(=O)COc6ccccc65)c4)c4ccccc43)[C@H]2C)cc1` on Sonic hedgehog protein (Shh).
(A) 0.45

====

Reported z-score by item:
- METHOD NOTES: JC-1 mitochondrial signal, unstimulated MM1S myeloma – cell-based, JC-1 fluorescence, 24 h, 100 nL compound, profiling panel (AID 1170); also: test concentration not given here
- ASSAY CONTEXT: MM1S mitochondrial potential, higher = more signal
Answer field: number only, no words.

>>> quantitative_result("COC(=O)[C@@]1(Cc2ccc(OC)cc2)[C@H]2c3cc(C(=O)N4CCCC4)n(CCF)c3C[C@H]2CN1C(=O)c1ccccc1")
-0.0401
>>> quantitative_result("C[N+](C)(C)CCCCCCNC(=O)[C@@H]1C[C@@H]2C(=O)NCC(=O)N2[C@@H]1c1ccc(O)cc1")
-0.534
>>> quantitative_result("O=C(Nc1cc(Br)ccc1C(=O)NCc1cccc(O)c1)c1ccccc1")
-1.12
>>> quantitative_result("CC(C)C[C@@H]1NC(=O)[C@@H]2C[C@H](C(=O)NCc3ccc(F)cc3)[C@H](c3ccc(O)cc3)N2C1=O")
0.593
>>> quantitative_result("C=C(COC)C(=O)CC[C@H](OC(=O)c1ccccc1-c1ccccc1C(=O)O)c1ccc(OCCO)cc1")
0.463
>>> quantitative_result("Cc1ccc(S[C@]2(C(=O)NCC(C)C)CC(=O)N(C3CCCCC3)[C@@H]2c2ccc(CO)cc2I)cc1")
0.0655
>>> quantitative_result("COC(=O)C(CC#Cc1ccc2c(c1)[C@]1(C(=O)N2)[C@H](c2ccc(O)cc2)N2[C@H](c3ccccc3)[C@H](c3ccccc3)OC(=O)[C@H]2[C@@H]1C(N)=O)C(=O)OC")
-0.0448
>>> quantitative_result("[N-]=[N+]=NCc1ccccc1[C@H]1OC(c2ccc(OCCCO)cc2)=N[C@@]1(Cc1ccccc1N=[N+]=[N-])C(=O)NCCN1CCOCC1")
-0.549

(Q) Report measured z-score; entry is CN1C(=O)C2C=CC(C(O)C3CCCCC3)N(N(c3ccccc3)c3ccccc3)C2C1=O (centres undefined)
(A) -0.365

(Q) Report measured z-score; entry is `NCCCCCCNC(=O)[C@H]1C[C@H]2C(=O)N3CCC[C@H]3C(=O)N2[C@H]1c1ccc(O)cc1`
(A) 0.698

(Q) Report measured z-score; entry is `COCCCNC(=O)[C@@]1(Cc2ccccc2I)c2ccccc2C(=O)N(Cc2ccccc2Cl)[C@H]1c1ccc(CO)cc1`
(A) 0.148

(Q) Report measured z-score; entry is `O=C(O)[C@@]1(Cc2ccccc2)COC(c2ccc(OCCCO)cc2)=N1`
(A) 0.0336

(Q) Report measured z-score; entry is `CC(C)NC(=O)[C@@H]1c2ccccc2C(=O)N(Cc2cc(C(F)(F)F)cc(C(F)(F)F)c2)[C@H]1c1ccc(CO)cc1`
(A) 0.144
